Assay: protein stability index of a GFP-peptide fusion (yeast GPS) (PSI 1-4); higher = more stable; sorted into four equal gates, so the index is relative within each strain
Settings: doa10∆
I would appreciate it if you labelled entries fulfilled when protein stability index is 3 or higher, otherwise not fulfilled.

Test whether the sequence RQCFREKANDIGFHKYR [RPS29B] records protein stability index of 3 or higher.
fulfilled

Is protein stability index for EFESELKNVEETQEIKE [ESC2] at or above 3?
fulfilled

Answer whether protein stability index of IRQYALATAHIYLSRFL [SSN8] is greater than or equal to 3.
not fulfilled

Quick check, protein stability index >= 3? SLNEKNALHTERLHELK [SMC1]
fulfilled

Determine whether measured protein stability index meets or exceeds 3 for VPTKIARGTIEIVSDVK [RPP0]
not fulfilled

Does protein stability index meet or surpass 3 for RNEDARRNLRYGDRMKL [RPO31] ?
fulfilled

Given KNSRVELQKIYDRHQSS [SMC4] , state whether its protein stability index is at least 3.
fulfilled

In plain terms: is recorded protein stability index at least 3 for DIPLAKALDNACGAFIN [CDC53] ?
not fulfilled

====

Experiment: protein stability index of a GFP-peptide fusion (yeast GPS) (PSI 1-4); higher = more stable; sorted into four equal gates, so the index is relative within each strain
Settings: ubr1∆
Property name: protein stability index
Answer using only a numeral; do not append any unit.

So what does the record say about protein stability index for VVIEKRRKKILNEIELD [GRR1] ?
2.96

Fill in the blank: the reported protein stability index of RELLNPRYTYHTIFSDV [YML031W/NDC1] is ____.
2.93

GET /values?readout=protein stability index&item= FPEENIIDAKTRNEQTT [MCD1]
3.08

Which protein stability index is listed for PLKYAPHLPFSKSENPV [SWI3] ?
2.93

What value of protein stability index has been reported for the following sequence? DLNHVTEELQTQYATSQ [SMC2]
3.44

# lookup: protein stability index of KAFTNWNKRDFMAFINA [ISW2]
1.16

I'd like to know its protein stability index. The sequence in question is PVQSKFGRKKRKGGPAT [RPT2]
3.22

Quick one: protein stability index of EVDYEDKDNPVDSRNET [SRB4] ?
3.33

Using the record for KRIKGLEFSALSAADIV [RPO31] , report its protein stability index.
3.24

Given the entry NKDSIEECGRTIHRSFT [CSN12] , report its measured protein stability index.
3.12

Item KVLQLLRLTRINSGTFV [RPL7A] has what recorded protein stability index?
1.07

Quick one: protein stability index for HHRIFDSSAHFKGALTI [YMR129W/POM152] ?
2.62

Value lookup for protein stability index; key = GMIYNKLFVSKEHAPYT [FAS2]
2.41

What does the record list as protein stability index for KIGPLGLSPKKVGEDIA [RPL12A] ?
3.38

Any idea what protein stability index was measured for TALDAEGAARGTSVYLV [DIS3] ?
2.28

What measured protein stability index goes with MATLEELDAQTLPGDDE [RPT5] ?
3.49

What value of protein stability index has been recorded for this entry: LIKTLSTLHMLGYTHIA [RPP1]
2.65

What value of protein stability index has been recorded for this entry: SIEVQSLPEFFTNRIPS [SWI3]
2.61

Item under review: PIDAGLNEAPFPEENII [MCD1] . Reported protein stability index?
2.96

Report protein stability index for KTAIEGSYIDKKCPFTG [RPS11A] please.
3.27

What does the record list as protein stability index for QRTATLCLEKLMCLSSK [YCS4] ?
1.78

Query (sequence): AAPAATSAASGDAAPAE [RPP0] ; field requested: protein stability index
2.42

Record request: protein stability index value, item VPFIIAAMVIMHLMALH [COB]
1.43

What does the record list as protein stability index for RLPHQFRPIEIFTDFLP [RRP42] ?
2.21

Find the recorded protein stability index belonging to SVARVEDHDVHSNESSN [IRR1] and report it.
2.81

If you can, please state the reported protein stability index value of SNKPCMGIVQDTLCGIR [RPO21] .
1.77

Can you share its protein stability index? I mean this sequence: IWKESLIELSGGQRSLI [SMC2]
1.56

Item under review: DSVFEQNEMIDAIAVTK [RPL3] . Reported protein stability index?
2.51

Value lookup for protein stability index; key = FNAPATGNGTTTTSNTS [YOR098C/NUP1]
2.84

# protein stability index lookup, item QNHNSKSTDNSAIRQVF [IRR1]
2.74

Can you look up the measured protein stability index of QKRQLHDISKTETSNED [SNU114] for me?
3.04
